Listed next: entries and their corresponding Ka.
target: T1, recombinant human IL-23R/Fc chimera (R&D Systems) (human, UniProt Q5VWK5 24-355)
T1 construct: Bought; also called rhIL23RFc
T1 sequence (looked up): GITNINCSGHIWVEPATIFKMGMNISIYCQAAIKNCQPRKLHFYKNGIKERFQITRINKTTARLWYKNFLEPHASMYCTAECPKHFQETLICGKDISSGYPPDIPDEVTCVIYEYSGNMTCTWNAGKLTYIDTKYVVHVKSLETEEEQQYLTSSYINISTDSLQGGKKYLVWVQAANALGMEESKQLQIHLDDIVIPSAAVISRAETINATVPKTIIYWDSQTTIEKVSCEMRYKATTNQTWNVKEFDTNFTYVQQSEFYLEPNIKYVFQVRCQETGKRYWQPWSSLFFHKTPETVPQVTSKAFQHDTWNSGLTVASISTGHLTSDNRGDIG
measurement.notes: SPR
quantity.name: Ka (M⁻¹)

- binder: "101-51-1A7 ATRIMER complex (designed binder, Forms a homotrimer through the tetranectin coiled coil; one protomer is given., not shown: C-terminal tag: His/Myc (pANA4) or HA-StrepII (pANA10)) EPPTQKPKKIVNAKKDVVNTKMFEELKSRLDTLAQEVALLKEQQALQTVCLKGTKVHMKCFLAFTQTKTFHEASEDCISRGGTLSTPQTGSENDALYEYLRQSVGNEAEIWLGLNGSALTNTWVDMTGARIAYKNWERPPLYQPGGGWGVFGENCAVLSGAANGKWFDKRCRDQLPYICQFGIV"
  quantity.name: "Ka"
  reported.value: "2.24e+09"
- binder: "105-08-2C10 ATRIMER complex (designed binder) EPPTQKPKKIVNAKKDVVNTKMFEELKSRLDTLAQEVALLKEQQALQTVCLKGTKVHMKCFLAFTQTKTFHEASEDCISRGGTLSTPQTGSENDALYEYLRQSVGNEAEIWLGLNGSLLTDTWVDMTGARIAYKNWETEITAQPDGGFGVFGENCAVLSGAANGKWFDKRCRDQLPYICQFGIV"
  quantity.name: "Ka"
  reported.value: "1.63e+09"
- binder: "056-53.H1G ATRIMER complex (designed binder, Homotrimer of this chain (ATRIMER complex)., not shown: A possible extra N-terminal Ser from the ompA junction is left out) EPPTQKPKKIVNAKKDVVNTKMFEELKSRLDTLAQEVALLKEQQALQTVCLKGTKVHMKCFLAFTQTKTFHEASEDCISRGGTLSTPQTGSENDALYEYLRQSVGNEAEIWLGLNSGHWRAVWVDMTGARIAYKNWETEITAQPDGGFGVFGENCAVLSGAANGKWFDKRCRDQLPYICQFGIV"
  quantity.name: "Ka"
  reported.value: "1.95e+08"
